# Tgt: 17β-hydroxysteroid dehydrogenase type 1 (Homo sapiens, UniProt P14061)
# Construct: expressed in transfected cells; host or cells: MCF-7
# Sequence (P14061 whole entry): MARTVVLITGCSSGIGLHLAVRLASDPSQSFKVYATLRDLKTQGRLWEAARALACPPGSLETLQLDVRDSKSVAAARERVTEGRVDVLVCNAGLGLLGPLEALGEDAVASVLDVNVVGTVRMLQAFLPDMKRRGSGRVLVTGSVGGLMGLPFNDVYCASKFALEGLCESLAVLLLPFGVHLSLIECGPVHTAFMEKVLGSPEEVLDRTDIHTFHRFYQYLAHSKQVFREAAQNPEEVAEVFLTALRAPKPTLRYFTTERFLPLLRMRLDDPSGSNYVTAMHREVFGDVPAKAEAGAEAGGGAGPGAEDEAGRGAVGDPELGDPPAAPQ
# Experiment: Inhibition of 17β-HSD type 1 in MCF-7 cells stably expressing the isoenzyme (HPLC, tritium labeled estrone)
# Assay type: cell-based
# Setup Conditions: MCF7, 1 μM compound, 2 nM estrone, read-out: % Inhibition of the 17β-HSD enzyme type 1 (HSD1)
Please mark Satisfied if the recorded inhibition at 1 µM is equal to or greater than 20%, and Not satisfied if it falls below.

Consider the worked cases shown below.
- COC(=O)C1CCc2nc3sc4c(c3c(=O)n2CC1)CCC(C=O)=C4OC (stereo not drawn) [Compound 24]: Satisfied
- O=CC1=C(Cl)c2sc3nc4n(c(=O)c3c2CC1)CCCCCC4 [Compound 4b]: Satisfied
- CC1CCc2nc3sc4c(c3c(=O)n2CC1)CCCC4 (stereo not drawn) [Compound 14]: Not satisfied
- O=c1c2c3c(sc2nc2n1CCCCC2)CCC3 [Compound 2b]: Satisfied
- CCCSC1=C(C=O)CCc2c1sc1nc3n(c(=O)c21)CCC(C)CC3 (stereo not drawn) [Compound 34]: Not satisfied

Prompt: hey, is inhibition at 1 µM for this one >= 20%? O=C1CCCc2c1sc1nc3n(c(=O)c21)CCC3 [Compound 3f]
Response: Not satisfied

* * *

# Tgt: 17β-hydroxysteroid dehydrogenase type 1 (Homo sapiens, UniProt P14061)
# Construct: expressed in transfected cells; host or cells: MCF-7
# Experiment: Inhibition of 17β-HSD type 1 in MCF-7 cells stably expressing the isoenzyme (HPLC, tritium labeled estrone)
# Format: cell-based
# Setup Conditions: MCF7, 1 μM compound, 2 nM estrone, read-out: % Inhibition of the 17β-HSD enzyme type 1 (HSD1)
# Source text: Biological Testing Materials and Methods 1. Inhibition of the 17β-hydroxysteroid dehydrogenase type 1, type 2 and type 3 enzyme The compounds were screened in respect of 17β-HSD enzyme activity in vitro on established M CF-7 cell lines, each stably expressing one of the respective 17β-HSD isoenzymes. The interconversion of substrate by each isoenzyme and the 17β-HSD inhibiting activity of chemical compounds in these cell lines were detected by HPLC system. […]
Reported Metric: inhibition at 1 µM (%)
Report the figure in % without appending any unit label.

See these solved cases before continuing.
* O=c1c2c3c(sc2nc2n1CCCCC2)CCCCC3 | 22.7
* CC1CCc2nc3sc4c(c3c(=O)n2CC1)CCCC4=O (centres unmarked) | 18.4
* CCCCSC1=C(C=O)CCc2c1sc1nc3n(c(=O)c21)CCCCC3 | 54.1

Prompt: // lookup inhibition at 1 µM for CC1CCc2c(sc3nc4n(c(=O)c23)CCCCC4)C1=O (centres unmarked)
Response: 14.3

Prompt: // lookup inhibition at 1 µM for O=CC1=C(Cl)c2sc3nc4n(c(=O)c3c2CC1)CCCCCC4C=O (centres unmarked)
Response: 4.7

* * *

# Tgt: 17β-hydroxysteroid dehydrogenase type 2 (Homo sapiens, UniProt P37059)
# Construct: expressed in transfected cells; host or cells: MCF-7
# Experiment: Inhibition of 17β-HSD type 2 in MCF-7 cells stably expressing the isoenzyme (HPLC, tritium labeled estradiol)
# Format: cell-based
# Setup Conditions: MCF7, 10 μM compound, 2 nM estradiol, read-out: % Inhibition of the 17β-HSD enzyme type 2 (HSD2)
Reported Metric: inhibition at 10 µM (%)
Report the figure in % without appending any unit label.

See these solved cases before continuing.
* O=C1CCc2c1sc1nc3n(c(=O)c21)CCCCC3 | 25.4
* CCCSC1=C(C=O)CCc2c1sc1nc3n(c(=O)c21)CCCCCC3 | 17.3
* O=C1CCCc2c1sc1nc3ccccn3c(=O)c21 | 16.4
* O=C(O)C1=C(Cl)c2sc3nc4n(c(=O)c3c2CC1)CCCCC4 | 9.3
* CC1CCc2c(sc3nc4n(c(=O)c23)CCCCC4)C1=O (stereo not shown) | 18.7

Prompt: // lookup inhibition at 10 µM for CCSC1=C(C=O)CCc2c1sc1nc3n(c(=O)c21)CCCCC3
Response: 25.2

Prompt: // lookup inhibition at 10 µM for CCOC(=O)C1CCc2nc3sc4c(c3c(=O)n2CC1)CCCC4 (stereo not shown)
Response: 24.8

Prompt: // lookup inhibition at 10 µM for CC1CCc2c(sc3nc4n(c(=O)c23)CCCCC4)C1 (stereo not shown)
Response: 3.2

Prompt: // lookup inhibition at 10 µM for CCCSC1=C(C=O)CCc2c1sc1nc3n(c(=O)c21)CCCCC3
Response: 18.6

Prompt: // lookup inhibition at 10 µM for O=c1c2c3c(sc2nc2n1CCCC2)CCCC3
Response: 28.9

* * *

# Tgt: 17β-hydroxysteroid dehydrogenase type 3 (Homo sapiens, UniProt P37058)
# Construct: expressed in transfected cells; host or cells: MCF-7
# Sequence (P37058 whole entry): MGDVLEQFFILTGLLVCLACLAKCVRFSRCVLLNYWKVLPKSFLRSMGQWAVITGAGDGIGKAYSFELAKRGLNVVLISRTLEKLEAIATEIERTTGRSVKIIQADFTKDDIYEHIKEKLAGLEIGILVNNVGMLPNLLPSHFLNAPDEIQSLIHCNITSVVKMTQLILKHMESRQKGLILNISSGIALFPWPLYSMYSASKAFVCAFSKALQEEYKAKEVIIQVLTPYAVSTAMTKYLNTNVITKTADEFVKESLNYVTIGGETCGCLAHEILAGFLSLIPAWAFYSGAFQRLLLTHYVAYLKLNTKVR
# Experiment: Inhibition of 17β-HSD type 3 in MCF-7 cells stably expressing the isoenzyme (HPLC, tritium labeled androstenedione)
# Format: cell-based
# Setup Conditions: MCF7, 10 μM compound, 2 nM androstenedione, read-out: % Inhibition of the 17β-HSD enzyme type 3 (HSD3)
Reported Metric: inhibition at 10 µM
Write the numeric value and follow it with the unit.

* CCOC(=O)C1CCc2nc3sc4c(c3c(=O)n2CC1)CCC(C=O)=C4Cl (stereo not drawn) [Compound 21] | 87.3%
* Cc1nc2sc3c(c2c(=O)n1C)CCCC3 [Compound 2g] | 51.3%
* O=c1c2c3c(sc2nc2n1CCCCC2)CCCC3 [Compound 2a] | 24.9%
* CCCCSC1=C(C=O)CCc2c1sc1nc3n(c(=O)c21)CCCCC3 [Compound 5d] | 72%
* CC(C)SC1=C(C=O)CCc2c1sc1nc3n(c(=O)c21)CCCCC3 [Compound 5e] | 86.3%

Prompt: // lookup inhibition at 10 µM for CC1CCc2c(sc3nc4n(c(=O)c23)CCCCC4)C1 (stereo not drawn) [Compound 27]
Response: 24.9%

Prompt: // lookup inhibition at 10 µM for O=CC1=C(Cl)c2sc3nc4n(c(=O)c3c2CC1)CCCCCC4 [Compound 4b]
Response: 42.1%

Prompt: // lookup inhibition at 10 µM for O=c1c2c3c(sc2nc2n1CCCCC2)CCC3 [Compound 2b]
Response: 9.5%

* * *

# Tgt: 17β-hydroxysteroid dehydrogenase type 2 (Homo sapiens, UniProt P37059)
# Construct: expressed in transfected cells; host or cells: MCF-7
# Sequence (P37059 1-387): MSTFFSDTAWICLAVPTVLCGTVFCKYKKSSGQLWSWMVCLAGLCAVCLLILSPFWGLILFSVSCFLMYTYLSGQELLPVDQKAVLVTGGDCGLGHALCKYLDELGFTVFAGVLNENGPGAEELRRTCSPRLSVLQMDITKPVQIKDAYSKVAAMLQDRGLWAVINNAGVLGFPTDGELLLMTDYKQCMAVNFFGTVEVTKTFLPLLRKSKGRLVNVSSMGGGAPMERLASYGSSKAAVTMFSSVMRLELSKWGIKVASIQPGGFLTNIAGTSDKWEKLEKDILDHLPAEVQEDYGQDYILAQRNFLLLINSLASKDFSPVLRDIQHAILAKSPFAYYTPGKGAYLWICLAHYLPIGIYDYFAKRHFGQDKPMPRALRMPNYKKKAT
# Experiment: Inhibition of 17β-HSD type 2 in MCF-7 cells stably expressing the isoenzyme (HPLC, tritium labeled estradiol)
# Format: cell-based
# Setup Conditions: MCF7, 1 μM compound, 2 nM estradiol, read-out: % Inhibition of the 17β-HSD enzyme type 2 (HSD2)
Reported Metric: inhibition at 1 µM (%)
Report the figure in % without appending any unit label.

See these solved cases before continuing.
* CCCSC1=C(C=O)CCc2c1sc1nc3n(c(=O)c21)CCCCC3 | 8.9
* Cc1nc2sc3c(c2c(=O)n1C)CCCC3 | 44.9
* CCCSC1=C(C=O)CCc2c1sc1nc3n(c(=O)c21)CCC(C)CC3 (stereo not drawn) | 13
* O=C(O)C1=C(Cl)c2sc3nc4n(c(=O)c3c2CC1)CCCCC4 | -0.2
* CCSC1=C(C=O)CCc2c1sc1nc3n(c(=O)c21)CCCCC3 | 19.7
* O=CC1=C(Cl)c2sc3nc4n(c(=O)c3c2CC1)CCCCCC4C=O (stereo not drawn) | 16.7
* CCCSC1=C(C=O)CCc2c1sc1nc3n(c(=O)c21)CCCCCC3 | 11.6
* O=Cc1ccc2c(sc3nc4n(c(=O)c32)CCCCC4)c1Sc1ccccc1 | 7

Next molecule, please.
Prompt: // lookup inhibition at 1 µM for O=C1CCCc2c1sc1nc3n(c(=O)c21)CCC3
Response: 31.1

* * *

# Tgt: 17β-hydroxysteroid dehydrogenase type 1 (Homo sapiens, UniProt P14061)
# Construct: expressed in transfected cells; host or cells: MCF-7
# Experiment: Inhibition of 17β-HSD type 1 in MCF-7 cells stably expressing the isoenzyme (HPLC, tritium labeled estrone)
# Assay type: cell-based
# Setup Conditions: MCF7, 1 μM compound, 2 nM estrone, read-out: % Inhibition of the 17β-HSD enzyme type 1 (HSD1)
inhibition at 1 µM values for the compounds below.
Report the figure in % without appending any unit label.

See these solved cases before continuing.
* CC1CCc2c(sc3nc4n(c(=O)c23)CCCCC4)C1O (centres unmarked) | 19.7
* O=c1c2c3c(sc2nc2n1CCC(CO)CC2)CCCC3 (centres unmarked) | 4.8
* CCCSC1=C(C=O)CCc2c1sc1nc3n(c(=O)c21)CCC(C(=O)OC)CC3 (centres unmarked) | 17.4
* CCCSC1=C(C=O)CCc2c1sc1nc3n(c(=O)c21)CCC(C(=O)OCC)CC3 (centres unmarked) | 24.3

Next compound, please.
Prompt: // lookup inhibition at 1 µM for O=c1c2c3c(sc2nc2n1CCCC2)CCCC3
Response: 15.8
